FYI, the data here is from patent US9133186B2.

- test.target: human AMPK α1β1γ1 enzyme (Homo sapiens, UniProt Q13131+Q9Y478)
- Construct: purchased Carna Biosciences, Inc
- Sequence (Q13131 10-559 limits assumed): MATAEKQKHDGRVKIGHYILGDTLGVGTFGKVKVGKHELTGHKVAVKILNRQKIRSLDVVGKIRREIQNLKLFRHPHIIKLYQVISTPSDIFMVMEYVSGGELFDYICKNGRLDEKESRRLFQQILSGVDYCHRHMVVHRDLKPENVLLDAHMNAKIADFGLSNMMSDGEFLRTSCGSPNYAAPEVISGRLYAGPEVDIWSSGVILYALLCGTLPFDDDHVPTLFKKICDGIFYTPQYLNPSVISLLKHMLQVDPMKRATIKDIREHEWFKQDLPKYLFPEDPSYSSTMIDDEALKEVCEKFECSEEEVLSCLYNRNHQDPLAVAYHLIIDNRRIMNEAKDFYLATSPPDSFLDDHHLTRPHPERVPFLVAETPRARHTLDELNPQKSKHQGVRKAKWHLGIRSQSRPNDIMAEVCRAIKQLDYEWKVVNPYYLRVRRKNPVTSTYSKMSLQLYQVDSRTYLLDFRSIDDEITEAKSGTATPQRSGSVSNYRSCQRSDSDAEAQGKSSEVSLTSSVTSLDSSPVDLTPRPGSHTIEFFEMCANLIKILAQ
- Sequence (Q9Y478 whole entry): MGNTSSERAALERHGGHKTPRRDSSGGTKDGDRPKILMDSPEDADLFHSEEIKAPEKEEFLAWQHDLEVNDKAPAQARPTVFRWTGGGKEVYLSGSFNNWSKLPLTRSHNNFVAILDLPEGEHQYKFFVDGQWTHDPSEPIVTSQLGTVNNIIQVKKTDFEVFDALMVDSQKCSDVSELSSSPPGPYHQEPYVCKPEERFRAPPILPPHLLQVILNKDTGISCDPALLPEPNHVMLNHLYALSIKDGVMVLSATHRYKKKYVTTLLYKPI
- Sequence (P54619 whole entry partner): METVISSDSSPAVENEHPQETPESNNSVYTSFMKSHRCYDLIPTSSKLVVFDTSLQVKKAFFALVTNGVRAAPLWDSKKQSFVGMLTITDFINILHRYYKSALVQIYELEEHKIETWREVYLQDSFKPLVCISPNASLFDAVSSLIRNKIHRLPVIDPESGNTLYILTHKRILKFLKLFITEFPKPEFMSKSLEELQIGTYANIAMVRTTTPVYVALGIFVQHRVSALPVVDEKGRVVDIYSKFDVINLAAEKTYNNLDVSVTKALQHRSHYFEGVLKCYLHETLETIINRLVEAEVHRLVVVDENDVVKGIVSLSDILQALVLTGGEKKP
- assay.info: AMPK activator evaluation, Test Example 1 (mobility shift, FL-Peptide 7)
- Assay type: biochemical
- test.conditions: human AMPK α1β1γ1, control without compound = 100%
List of EC150 (compound concentration showing 150% relative to the control) values.
Write down the numeric answer in nM and omit the unit.

CC(C)(C(=O)O)c1ccc(Oc2nc3nc(-c4ccc(N5CCCC5)cc4)c(F)cc3[nH]2)cc1    35
CC(=O)NC(C)(C)c1ccc(Oc2nc3nc(-c4ccc(C5=CCOCC5)cc4)c(Cl)cc3[nH]2)cn1    180
O=C(O)c1cncc(Oc2nc3nc(-c4ccc(N5CCOCC5)cc4)c(Cl)cc3[nH]2)c1    180
NC(=O)c1cccc2ccc(Oc3nc4nc(-c5ccc(N6CCOCC6)cc5)c(Cl)cc4[nH]3)cc12    13
CC(=O)NC(C)(C)c1ccc(Oc2nc3nc(-c4ccc(NCCO)cc4)c(Cl)cc3[nH]2)cc1    80
CC(C)(NC(=O)CO)c1ccc(Oc2nc3nc(-c4ccc(N5CCOCC5)cc4)c(Cl)cc3[nH]2)cc1    31

Continue with the next compound.
Quick one: EC150 (compound concentration showing 150% relative to the control) of `Cc1ccc(Oc2nc3nc(-c4ccc(N5CCOCC5)nc4)c(Cl)cc3[nH]2)cc1C(=O)O` ?
100
